target: hSCN3A (Homo sapiens); construct: expressed in transfected cells; test: Whole-cell patch-clamp electrophysiology (conventional or PatchXpress), HEK cells expressing hSCN3A, estimated IC-50; format: cell-based; details: estimated IC-50, HEK cells expressing hSCN3A; class symbols or bounds; read-out: SCN3A EIC-50
pIC50: −log10 of the molar value.
Record form. Attribute: pIC50. Fill in for each entry.

Here is how some molecules turned out for pIC50.
molecule: CN(CCc1ccncc1)Cc1csc(Nc2ccc(S(=O)(=O)Nc3nccs3)cc2)n1
pIC50: > 5.70
//
molecule: O=S(=O)(Nc1nccs1)c1ccc(Nc2nccc(OCC(c3ccccc3)c3ccccc3)n2)cc1
pIC50: > 5.70
//
molecule: O=S(=O)(Nc1nccs1)c1ccc(Nc2nc(CN3CCC[C@H]3CN3CCCC3)cs2)cc1
pIC50: < 6.00

# return pIC50 for each item in the list
1. O=S(=O)(Nc1nccs1)c1ccc(Nc2ccn(Cc3ccc(Cl)cc3)n2)cc1OC(F)(F)F
2. O=S(=O)(Nc1nccs1)c1ccc(Nc2nc(C3CC3c3ccccc3)cs2)cc1 (stereo not drawn)
3. O=S(=O)(Nc1nccs1)c1ccc(Nc2ccn(Cc3ccc(Cl)cc3)n2)c(Cl)c1

Result:
["5.00 to 5.70", "> 5.70", "> 5.70"]

----------
target: hSCN3A (Homo sapiens, UniProt Q9NY46); construct: expressed in transfected cells; assay: Whole-cell patch-clamp electrophysiology (conventional or PatchXpress), HEK cells expressing hSCN3A, estimated IC-50; assay type: cell-based; details: estimated IC-50, HEK cells expressing hSCN3A; class symbols or bounds; read-out: SCN3A EIC-50
Sequence (Q9NY46 whole entry): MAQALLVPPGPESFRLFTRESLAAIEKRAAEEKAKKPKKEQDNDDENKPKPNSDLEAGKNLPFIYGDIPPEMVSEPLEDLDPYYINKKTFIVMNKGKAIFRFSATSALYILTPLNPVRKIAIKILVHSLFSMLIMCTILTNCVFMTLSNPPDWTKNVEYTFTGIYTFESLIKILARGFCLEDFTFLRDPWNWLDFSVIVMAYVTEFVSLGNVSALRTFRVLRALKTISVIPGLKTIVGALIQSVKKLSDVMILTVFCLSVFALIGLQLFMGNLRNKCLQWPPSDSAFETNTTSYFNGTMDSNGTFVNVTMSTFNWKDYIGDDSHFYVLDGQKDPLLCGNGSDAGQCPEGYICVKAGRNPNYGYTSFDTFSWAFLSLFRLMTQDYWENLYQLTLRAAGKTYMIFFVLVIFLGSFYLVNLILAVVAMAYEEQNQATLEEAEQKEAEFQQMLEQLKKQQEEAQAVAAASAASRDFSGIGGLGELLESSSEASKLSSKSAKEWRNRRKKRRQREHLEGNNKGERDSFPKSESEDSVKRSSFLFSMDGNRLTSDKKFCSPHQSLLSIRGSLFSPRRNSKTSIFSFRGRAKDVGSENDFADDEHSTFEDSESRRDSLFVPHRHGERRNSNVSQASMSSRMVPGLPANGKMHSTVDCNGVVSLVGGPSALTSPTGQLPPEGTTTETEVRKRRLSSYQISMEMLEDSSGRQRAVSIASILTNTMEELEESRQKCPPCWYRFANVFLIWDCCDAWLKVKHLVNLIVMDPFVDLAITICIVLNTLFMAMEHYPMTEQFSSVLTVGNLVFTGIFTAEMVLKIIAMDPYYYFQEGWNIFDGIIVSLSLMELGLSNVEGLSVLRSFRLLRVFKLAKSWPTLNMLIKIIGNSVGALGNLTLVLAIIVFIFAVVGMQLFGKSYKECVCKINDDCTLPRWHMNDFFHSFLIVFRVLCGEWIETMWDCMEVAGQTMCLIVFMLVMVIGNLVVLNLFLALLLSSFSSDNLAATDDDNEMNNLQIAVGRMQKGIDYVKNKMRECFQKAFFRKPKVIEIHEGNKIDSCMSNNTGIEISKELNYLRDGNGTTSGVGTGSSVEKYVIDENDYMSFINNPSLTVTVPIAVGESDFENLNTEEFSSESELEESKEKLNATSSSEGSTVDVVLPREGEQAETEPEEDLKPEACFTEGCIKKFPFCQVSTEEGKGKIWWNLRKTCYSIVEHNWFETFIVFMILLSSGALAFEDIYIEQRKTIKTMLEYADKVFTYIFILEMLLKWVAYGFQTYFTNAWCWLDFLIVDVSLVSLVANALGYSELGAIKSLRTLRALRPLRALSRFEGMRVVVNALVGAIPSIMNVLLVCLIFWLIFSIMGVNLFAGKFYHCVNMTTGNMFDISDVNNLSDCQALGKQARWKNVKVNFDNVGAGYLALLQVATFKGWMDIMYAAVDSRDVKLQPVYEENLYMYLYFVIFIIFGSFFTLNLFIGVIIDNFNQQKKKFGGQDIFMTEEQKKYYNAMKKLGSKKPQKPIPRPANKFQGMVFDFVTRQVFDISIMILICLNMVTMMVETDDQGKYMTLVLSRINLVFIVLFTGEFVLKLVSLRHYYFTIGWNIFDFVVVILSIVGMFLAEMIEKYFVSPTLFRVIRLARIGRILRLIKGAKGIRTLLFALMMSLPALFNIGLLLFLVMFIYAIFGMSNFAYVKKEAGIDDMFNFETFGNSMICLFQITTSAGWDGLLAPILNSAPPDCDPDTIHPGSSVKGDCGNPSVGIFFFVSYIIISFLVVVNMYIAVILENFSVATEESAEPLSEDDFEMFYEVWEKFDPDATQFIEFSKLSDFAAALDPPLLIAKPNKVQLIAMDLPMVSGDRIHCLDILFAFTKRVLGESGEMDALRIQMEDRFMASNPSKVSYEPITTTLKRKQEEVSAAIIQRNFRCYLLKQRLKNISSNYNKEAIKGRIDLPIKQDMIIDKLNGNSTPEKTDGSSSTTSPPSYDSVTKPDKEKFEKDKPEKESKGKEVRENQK
Give measured IC50 for each item. Keep answers brief.

Record excerpt, results attached:
smiles_notation: Cc1cc(Nc2ccc(S(=O)(=O)Nc3nccs3)c(F)c2)n(-c2c(C)cccc2C)n1
IC50: < 2000 nM

smiles_notation: O=S(=O)(Nc1nccs1)c1ccc(Nc2nc(CNCc3ccc(Cl)cc3)cs2)cc1
IC50: < 2000 nM

smiles_notation: N#Cc1cc(Nc2ccn(Cc3ccc(Cl)cc3)n2)ccc1S(=O)(=O)Nc1nccs1
IC50: < 2000 nM

smiles_notation: CCN(CC)C(=O)Cc1cc(Nc2ccc(S(=O)(=O)Nc3nccs3)c(F)c2)n(-c2ccccc2)n1
IC50: > 1000 nM

smiles_notation: O=S(=O)(Nc1nccs1)c1ccc(Nc2nc(CNCc3ccc(C(F)(F)F)cc3)cs2)cc1
IC50: < 2000 nM

smiles_notation: Cc1nc(Nc2ccc(S(=O)(=O)Nc3nccs3)cc2)sc1C
IC50: 2000 to 10000 nM

smiles_notation: O=S(=O)(Nc1nccs1)c1ccc(Nc2nccc(OCC3CCCCC3)n2)cc1
IC50: < 2000 nM

Alright, here's another compound for you.
Q: // output IC50; input `O=S(=O)(Nc1ncns1)c1ccc(Nc2ccn(Cc3ccc(Cl)cc3)n2)cc1F` ; system hSCN3A (Homo sapiens, UniProt Q9NY46)
Result: < 2000 nM

----------
Please go through the items and note down their IC50.
biological target: hSCN9A (Homo sapiens, UniProt Q15858); construct: expressed in transfected cells; assay: Whole-cell patch-clamp electrophysiology (conventional or PatchXpress), HEK cells expressing hSCN9A, estimated IC-50; assay type: cell-based; conditions: estimated IC-50, HEK cells expressing hSCN9A; class symbols or bounds; read-out: SCN9A EIC-50
Sequence (Q15858 whole entry): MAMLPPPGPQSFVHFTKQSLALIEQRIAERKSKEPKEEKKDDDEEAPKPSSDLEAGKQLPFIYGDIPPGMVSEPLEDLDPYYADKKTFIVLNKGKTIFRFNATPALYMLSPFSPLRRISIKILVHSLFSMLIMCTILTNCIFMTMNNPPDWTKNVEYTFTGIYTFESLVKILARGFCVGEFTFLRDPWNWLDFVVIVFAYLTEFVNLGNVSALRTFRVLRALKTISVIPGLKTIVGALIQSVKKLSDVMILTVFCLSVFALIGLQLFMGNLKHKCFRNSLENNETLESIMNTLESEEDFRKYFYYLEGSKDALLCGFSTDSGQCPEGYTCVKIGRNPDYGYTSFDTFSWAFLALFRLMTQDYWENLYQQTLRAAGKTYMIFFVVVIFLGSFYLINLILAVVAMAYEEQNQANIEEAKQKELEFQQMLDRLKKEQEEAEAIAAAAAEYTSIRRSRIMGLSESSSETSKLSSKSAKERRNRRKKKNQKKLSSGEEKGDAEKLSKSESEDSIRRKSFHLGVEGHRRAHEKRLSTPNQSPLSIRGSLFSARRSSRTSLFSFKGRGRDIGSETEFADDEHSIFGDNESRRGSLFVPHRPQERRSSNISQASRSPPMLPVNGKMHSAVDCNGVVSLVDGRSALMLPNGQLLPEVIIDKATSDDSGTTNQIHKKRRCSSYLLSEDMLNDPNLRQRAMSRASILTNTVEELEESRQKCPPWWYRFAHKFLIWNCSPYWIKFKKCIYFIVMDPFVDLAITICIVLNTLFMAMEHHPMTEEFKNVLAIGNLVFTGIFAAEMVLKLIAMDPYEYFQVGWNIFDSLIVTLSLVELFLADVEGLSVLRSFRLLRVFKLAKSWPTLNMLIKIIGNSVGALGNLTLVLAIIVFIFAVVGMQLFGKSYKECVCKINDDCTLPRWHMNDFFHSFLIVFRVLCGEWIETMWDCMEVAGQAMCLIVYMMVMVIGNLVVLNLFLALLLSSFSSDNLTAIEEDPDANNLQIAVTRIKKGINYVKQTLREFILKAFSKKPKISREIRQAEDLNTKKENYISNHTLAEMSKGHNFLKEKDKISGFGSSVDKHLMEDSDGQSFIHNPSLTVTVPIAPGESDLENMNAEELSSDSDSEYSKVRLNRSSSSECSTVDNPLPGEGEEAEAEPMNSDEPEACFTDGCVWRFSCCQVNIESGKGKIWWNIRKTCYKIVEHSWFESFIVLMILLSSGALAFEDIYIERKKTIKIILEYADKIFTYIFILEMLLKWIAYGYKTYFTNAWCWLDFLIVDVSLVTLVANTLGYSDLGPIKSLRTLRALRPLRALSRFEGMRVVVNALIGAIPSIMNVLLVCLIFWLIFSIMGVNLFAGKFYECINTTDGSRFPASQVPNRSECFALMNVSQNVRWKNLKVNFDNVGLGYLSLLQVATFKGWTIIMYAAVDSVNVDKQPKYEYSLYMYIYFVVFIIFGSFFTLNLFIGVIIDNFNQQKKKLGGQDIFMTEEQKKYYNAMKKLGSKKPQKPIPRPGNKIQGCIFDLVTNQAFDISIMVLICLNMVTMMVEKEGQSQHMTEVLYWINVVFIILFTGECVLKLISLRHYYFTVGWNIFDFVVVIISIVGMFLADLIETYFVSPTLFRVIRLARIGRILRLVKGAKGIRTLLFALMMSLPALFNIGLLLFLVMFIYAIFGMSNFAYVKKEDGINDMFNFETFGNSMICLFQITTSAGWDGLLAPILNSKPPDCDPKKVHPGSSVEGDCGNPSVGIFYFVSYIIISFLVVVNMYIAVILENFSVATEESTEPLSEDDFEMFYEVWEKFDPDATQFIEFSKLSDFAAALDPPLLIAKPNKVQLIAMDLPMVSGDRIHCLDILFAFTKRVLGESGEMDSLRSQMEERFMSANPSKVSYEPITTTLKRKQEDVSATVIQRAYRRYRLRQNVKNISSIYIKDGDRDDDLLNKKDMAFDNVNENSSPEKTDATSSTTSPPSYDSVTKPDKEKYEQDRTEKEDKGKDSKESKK

smiles_notation: O=S(=O)(Nc1nccs1)c1ccc(Nc2ncn(Cc3ccccc3Cl)n2)c(F)c1
quantity_kind: IC50
readout_value: < 2000 nM

smiles_notation: CCN(CC)C(=O)Cc1cc(Nc2ccc(S(=O)(=O)Nc3nccs3)c(F)c2)n(-c2ccccc2)n1
quantity_kind: IC50
readout_value: < 2000 nM

smiles_notation: O=C(Cn1ncc2cc(S(=O)(=O)Nc3nccs3)ccc21)c1ccc(F)cc1
quantity_kind: IC50
readout_value: 2000 to 10000 nM

smiles_notation: O=S(=O)(Nc1nccs1)c1ccc(Nc2cnn(CC(F)(F)F)c2)cc1F
quantity_kind: IC50
readout_value: 2000 to 10000 nM

smiles_notation: Cc1cc(Nc2ccn(Cc3ccc(Cl)cc3)n2)ccc1S(=O)(=O)Nc1nccs1
quantity_kind: IC50
readout_value: 2000 to 10000 nM

I'm hoping you can list IC50 for every compound here, please.
1. CN(C)C(=O)Cc1cc(Nc2ccc(S(=O)(=O)Nc3nccs3)c(F)c2)n(-c2ccccc2)n1
2. Cc1cc(Nc2ccc(S(=O)(=O)Nc3nccs3)c(C)c2)n(-c2ccccc2)n1

Result:
["2000 to 10000 nM", "2000 to 10000 nM"]

Please give IC50, item by item, for the list that follows.
1. O=S(=O)(Nc1nccs1)c1ccc(Nc2ccn(Cc3ccc(C(F)(F)F)cc3)n2)c(F)c1
2. Cc1cc(Nc2ccc(S(=O)(=O)Nc3nccs3)c(F)c2)n(-c2ccc(F)cc2)n1
3. Cc1csc(Nc2ccc(S(=O)(=O)Nc3nccs3)cc2)n1
4. Cc1cc(Nc2ccc(S(=O)(=O)Nc3nccs3)c(F)c2)n(-c2c(C)cccc2C)n1
5. Cc1cc(Nc2ccc(S(=O)(=O)Nc3nccs3)nc2)n(-c2ccccc2)n1

Result:
1: < 2000 nM; 2: < 2000 nM; 3: > 1000 nM; 4: < 2000 nM; 5: 2000 to 10000 nM
